Conditions: in acetonitrile, 308.15 K
reported-metric: solubility (mole fraction)
Please state the value as a number alone, without comment.

So for COc1ccccc1N1CCN(CC(O)COc2cccc3ccccc23)CC1 (stereo unspecified) , the logged solubility (mole fraction) turned out to be 0.00321

###

Conditions: in acetone, 313.15 K
reported-metric: solubility (mole fraction)
Note: the reply should be a number with no unit written.

Entry COc1ccccc1N1CCN(CC(O)COc2cccc3ccccc23)CC1 (stereo unspecified) , solubility (mole fraction) reported as 0.0118

###

Settings: in toluene, 273.15 K
reported-metric: solubility (mole fraction)
The reply should be a number, written without any unit.

// COc1ccccc1N1CCN(CC(O)COc2cccc3ccccc23)CC1 (stereo unspecified) : solubility (mole fraction) value = 0.00534
